- test method notes: gradient 5% acetonitrile 3 min, to 50% in 2 min, to 85% in 15 min, held 3 min, 100 µL/min
- condition description: column: Zorbax Extend-C18 2.1 x 50 mm; eluents: water / acetonitrile, 0.1% formic acid
outcome measure: RP-LC retention time (s)

Record excerpt, results attached:
>  <compound>
Cn1cc(CC(=O)NCc2ccc3c(c2)OCO3)c2cccnc21

>  <RP-LC retention time, s>
648

$$$$
>  <compound>
COc1ccc(OC)c(NC(=O)N2CCC(c3cnn(-c4ccccc4)c3)CC2)c1

>  <RP-LC retention time, s>
956

$$$$
>  <compound>
COc1cc(NC(=O)N2CCC(OC3CCN(S(C)(=O)=O)CC3)CC2)cc(OC)c1

>  <RP-LC retention time, s>
704

$$$$

I = CC(C)NCc1ccc(-c2ccccc2)o1
II = CCOC(=O)C(Cc1c[nH]c2ccccc12)NC(=O)COc1ccc(Cl)cc1 (stereo not given)
Lookup: Field: entry with larger RP-LC retention time (options I / II ). Identify your selection by its label.
Found: II
(II: 1010 s, I: 612 s)

----------
- test method notes: gradient 5% acetonitrile 3 min, to 50% in 2 min, to 85% in 15 min, held 3 min, 100 µL/min
- condition description: column: Zorbax Extend-C18 2.1 x 50 mm; eluents: water / acetonitrile, 0.1% formic acid
outcome measure: RP-LC retention time (s)

>  <molecule>
O=C(c1ccccc1)C1N=NCC1c1ccc(Cl)cc1 (centres undefined)

>  <unit abbrev>
s

>  <RP-LC retention time>
1040

$$$$
>  <molecule>
CCn1ccc2cc(S(=O)(=O)N3CCCN(C(=O)NCc4ccco4)CC3)ccc21

>  <unit abbrev>
s

>  <RP-LC retention time>
832

$$$$
>  <molecule>
CCN1C(=O)c2cccnc2Sc2cc(CNC(=O)c3ccn(CC)n3)ccc21

>  <unit abbrev>
s

>  <RP-LC retention time>
697

$$$$
>  <molecule>
CCn1c(C(=O)NCc2ccc(C)cc2)cc2sc(Cl)cc21

>  <unit abbrev>
s

>  <RP-LC retention time>
1200

$$$$
>  <molecule>
COC(=O)c1ccc(NC(=O)N(C)CCc2noc(C3CCCCC3)n2)cc1

>  <unit abbrev>
s

>  <RP-LC retention time>
906

$$$$
>  <molecule>
CCOc1ccc(CC(=O)N2C[C@@H]3C[C@H](NC(=O)c4cccs4)[C@H]2C3)cc1

>  <unit abbrev>
s

>  <RP-LC retention time>
782

$$$$
>  <molecule>
COC(=O)c1ccccc1NC(=O)CSc1ccc(N2CCCC(C(=O)NC3CC3)C2)nn1 (centres undefined)

>  <unit abbrev>
s

>  <RP-LC retention time>
683

$$$$
>  <molecule>
O=C(CN1C(=O)COc2ccc(Cl)cc21)NCC(=O)N1CCCc2ccccc21

>  <unit abbrev>
s

>  <RP-LC retention time>
862

$$$$
>  <molecule>
CCc1nn2c(CNC(=O)c3ccccc3)c(-c3ccccc3)nc2s1

>  <unit abbrev>
s

>  <RP-LC retention time>
870

$$$$

----------
- test method notes: gradient 5% acetonitrile 3 min, to 50% in 2 min, to 85% in 15 min, held 3 min, 100 µL/min
- condition description: column: Zorbax Extend-C18 2.1 x 50 mm; eluents: water / acetonitrile, 0.1% formic acid
outcome measure: RP-LC retention time (s)

>  <compound>
O=C(Cc1ccc(F)cc1)N1CCN(C(=O)c2nnn3c2COC(c2ccc(F)cc2)C3)CC1 (stereo not given)

>  <RP-LC retention time [s]>
861

$$$$
>  <compound>
Cc1ccc(-c2nnc(N3CCC(C(=O)NCCN4CCCCCC4)CC3)o2)cc1

>  <RP-LC retention time [s]>
632

$$$$
>  <compound>
CC(=O)N1c2ccc(S(=O)(=O)N3CCCC3)cc2CC1C(=O)NCCN1CCCCC1 (stereo not given)

>  <RP-LC retention time [s]>
592

$$$$
>  <compound>
Cc1ccc(N2C(=O)C3N=NN(Cc4nc(-c5ccccc5Br)no4)C3C2=O)cc1C (stereo not given)

>  <RP-LC retention time [s]>
1030

$$$$
>  <compound>
O=C(NCCCc1ccccc1)C1CCCN(c2nccnc2Oc2ccccc2)C1 (stereo not given)

>  <RP-LC retention time [s]>
1020

$$$$
>  <compound>
COCCc1noc(-c2ccc(=O)n(CC(=O)Nc3cc(F)ccc3F)c2)n1

>  <RP-LC retention time [s]>
728

$$$$
>  <compound>
O=C(Cn1nc(N2CCCCCC2)c2ccccc2c1=O)Nc1ccc2c(c1)OCCO2

>  <RP-LC retention time [s]>
1010

$$$$
>  <compound>
CC(C)c1nnc2n1CCN(C(=O)c1cc(-c3ccccc3)n[nH]1)C2

>  <RP-LC retention time [s]>
647

$$$$
>  <compound>
CCCn1c(C2CCN(C(=O)c3sccc3C)C2)nc2cccnc21 (stereo not given)

>  <RP-LC retention time [s]>
716

$$$$
>  <compound>
O=C(NCc1csc(C2CCCN(C(=O)c3cc(F)cc(F)c3)C2)n1)C1CCC1 (stereo not given)

>  <RP-LC retention time [s]>
771

$$$$
